# system: TNAP (Homo sapiens, UniProt P05186)
# Construct: made in house; host or cells: COS-1 cells, transient expression; dialyzed serum-free conditioned medium
# assay_method_text: TNAP luminescent assay (CDP-star substrate, 100 mM DEA)
# Type: biochemical
# stated_conditions: compounds from MLSMR in liquid form; read-out: IC50 HTS-Lumi
measured_property: IC50 (nM)

(I) COc1ccc(C)cc1S(=O)(=O)Nc1cccnc1
(II) Oc1cc(-c2cccc3ccccc23)[nH]n1
Problem: Response body: label of entry with the larger IC50; valid values I , II . Indicate your choice by writing its label.
Result: II

(a) O=C1C2CC=CCC2C(=O)N1c1n[nH]c(Cc2ccccc2)n1 (stereo not shown)
(b) O=C(O)c1cc(-c2ccccc2Cl)[nH]n1
Problem: For the pair a and b , which member has the lower IC50 number? Indicate your choice by writing its label.
Result: a

----------
# system: TNAP (Homo sapiens, UniProt P05186)
# Construct: made in house; host or cells: COS-1 cells, transient expression; dialyzed serum-free conditioned medium
# Sequence (P05186 18-501 limits assumed): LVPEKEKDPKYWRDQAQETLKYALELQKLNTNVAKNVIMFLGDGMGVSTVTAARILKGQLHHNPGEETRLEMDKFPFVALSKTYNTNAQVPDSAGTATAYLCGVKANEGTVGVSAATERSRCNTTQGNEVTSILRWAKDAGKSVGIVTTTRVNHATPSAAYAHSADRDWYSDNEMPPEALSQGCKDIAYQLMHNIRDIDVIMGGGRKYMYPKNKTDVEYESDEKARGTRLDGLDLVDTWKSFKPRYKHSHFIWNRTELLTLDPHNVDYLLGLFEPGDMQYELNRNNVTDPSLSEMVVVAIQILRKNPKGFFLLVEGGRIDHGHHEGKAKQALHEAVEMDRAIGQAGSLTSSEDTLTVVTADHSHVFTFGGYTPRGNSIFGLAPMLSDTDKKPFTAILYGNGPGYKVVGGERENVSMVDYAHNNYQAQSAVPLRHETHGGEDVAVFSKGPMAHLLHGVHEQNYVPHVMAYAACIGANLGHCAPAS
# assay_method_text: TNAP luminescent assay (CDP-star substrate, 100 mM DEA)
# Assay type: biochemical
# stated_conditions: phtalimide triazole series; read-out: IC50 TNAP- Lumi
pIC50: −log10 of the molar value.
measured_property: pIC50

Example entries begin here.
molecule	system	pIC50
O=C1C2CC=CCC2C(=O)N1c1nc(-c2ccccc2)n[nH]1 (stereo not shown)	TNAP (Homo sapiens, UniProt P05186)	6.10
O=C1C2CC=CCC2C(=O)N1c1nnc(CCc2ccccc2)[nH]1 (stereo not shown)	TNAP (Homo sapiens, UniProt P05186)	4.55
O=C1C2C3C=CC(C3)C2C(=O)N1c1n[nH]c(CCc2ccccc2)n1 (stereo not shown)	TNAP (Homo sapiens, UniProt P05186)	4.51
O=C1C2CCCCC2C(=O)N1c1nc(Cc2ccccc2)n[nH]1 (stereo not shown)	TNAP (Homo sapiens, UniProt P05186)	5.80

(1) O=C1c2ccccc2C(=O)N1c1nc(Cc2ccccc2)n[nH]1
(2) O=C1C2CC=CCC2C(=O)N1c1nnc(-c2cccnc2)[nH]1 (stereo not shown)
(3) O=C1C2CC=CCC2C(=O)N1c1n[nH]c(Cc2ccccc2)n1 (stereo not shown)
(4) O=C1C2CC=CCC2C(=O)N1c1nnc(-c2ccco2)[nH]1 (stereo not shown)
Problem: // ranking: key=pIC50, reverse=True To answer, arrange all of the labels according to the requested order.
Result: 3, 1, 4, 2
